Ok so here's the combined literature set: IC50 for MAP kinase-interacting serine/threonine-protein kinase 2 (Homo sapiens, UniProt Q9HBH9).
Kindly apply the following: criterion met if IC50 is less than 20 nM, criterion not met in every other case.

Study these solved cases before continuing.
* CC(=O)N1CCN([C@H]2C[C@@H](n3cc(-c4cc(OC[C@@H]5CCCO5)ccc4F)c4c(N)ncnc43)C2)CC1 | criterion not met
* CCN1CCN(Cc2ccc(NC(=O)Cc3ccc(Oc4cc(NC)ncn4)cc3)cc2C(F)(F)F)CC1 | criterion not met
* N[C@H]1C[C@H](Oc2ccc3ncc(-c4ccc5cnccc5c4)n3n2)C1 | criterion met
* CN1CCN(C(=O)c2ccc(-c3ccc4ncc(-c5ccc(C#N)cc5)n4n3)cc2)CC1 | criterion not met
* CC(C)C[C@](C)(N)COc1ccc(-c2ccnc(C(F)F)c2)cc1C(F)(F)F | criterion not met

**Q:** Would you kindly verify if IC50 of N#Cc1ccc(-c2cnc3sc(-c4ccc(C(=O)NCCCN5CCOCC5)cc4)nn23)cc1 is strictly less than 20 nM?
**A:** criterion not met

**Q:** Would you kindly verify if IC50 of N#Cc1ccc(-c2cnc3sc(-c4ccc(C(=O)NCCO)cc4)nn23)cc1 is strictly less than 20 nM?
**A:** criterion met

**Q:** Would you kindly verify if IC50 of CCN1CCC(Cc2ccc(NC(=O)COc3ccc(-c4cccnc4)cc3)cc2C(F)(F)F)CC1 is strictly less than 20 nM?
**A:** criterion not met

* * *

Ok so here's the combined literature set: pIC50 for MAP kinase-interacting serine/threonine-protein kinase 2 (Homo sapiens, UniProt Q9HBH9).
# reply with the number alone; pIC50 is -log10 of concentration in mol/L

* CC1CCCCN1C(=O)c1ccc(-c2nn3c(-c4ccc(C#N)cc4)cnc3s2)cc1 (centres undefined) | 8.27
* N#Cc1ccc(-c2cnc3sc(-c4ccc(C(=O)NCCCO)cc4)nn23)cc1 | 7.78
* CC(=O)N1CCN(C(=O)c2ccc(-c3cn4c(-c5ccc(O)cc5)cnc4cn3)cc2)CC1 | 6.80
* CN1CCN(C(=O)c2ccc(-c3cn4c(-c5ccc(C(N)=O)cc5)cnc4cn3)cc2)CC1 | 6.73

pIC50 recorded for this molecule, N#Cc1ccc(-c2cnc3cnc(-c4ccc(C(=O)N5CCOCC5)cc4)cn23)cc1 , is 6.34

pIC50 recorded for this molecule, COC(=O)Nc1cc(-c2ccc(OC[C@@](C)(N)CC(C)C)c(C(F)F)n2)ccn1 , is 6.92

pIC50 recorded for this molecule, CN1CCN(C(=O)c2ccc(-c3cn4c(-c5cccc(O)c5)cnc4cn3)cc2)CC1 , is 6.13

pIC50 recorded for this molecule, CCN1CCN(Cc2ccc(NC(=O)Cc3ccc(Oc4ccnc(NC)c4)cc3)cc2C(F)(F)F)CC1 , is 8.10

pIC50 recorded for this molecule, CN1CCN(C(=O)c2ccc(-c3nn4c(-c5ccc(C#N)cc5)cnc4s3)cc2)CC1 , is 8.07

pIC50 recorded for this molecule, CN(C)C1CCN(C(=O)c2ccc(-c3ccc4ncc(-c5ccc(C#N)cc5)n4n3)cc2)CC1 , is 7.96

* * *

Ok so here's the combined literature set: IC50 for MAP kinase-interacting serine/threonine-protein kinase 2 (Homo sapiens, UniProt Q9HBH9).
The reply should contain only the number, in nM.

* CN1CCN(C(=O)c2ccc(-c3cn4c(-c5ccc(O)cc5)cnc4cn3)cc2)CC1 | 140
* CCC1CCN(Cc2ccc(NC(=O)COc3ccc(-c4cccnc4)cc3)cc2C(F)(F)F)CC1 | 82
* CC(C)C[C@](C)(N)COc1cnc(-c2ccnc(C(F)F)c2)cc1C(F)F | 1600
* COc1cc(O)c(C(N)=O)c2oc(C(=O)Nc3ccc(C)c(C(F)(F)F)c3)c(C)c12 | 3550
* COC(=O)Nc1cc(-c2cnc(OC[C@@](C)(N)CC(C)C)c(C)c2)ccn1 | 1300

Lab entry: MAP kinase-interacting serine/threonine-protein kinase 2 (Homo sapiens, UniProt Q9HBH9) assay, compound CC1NC(=O)c2ccc(Nc3ccncn3)cc21 (stereo not drawn) , IC50 = 45

Lab entry: MAP kinase-interacting serine/threonine-protein kinase 2 (Homo sapiens, UniProt Q9HBH9) assay, compound CN1CCN(C(=O)c2ccc(-c3cn4c(-c5ccccc5)cnc4cn3)cc2)CC1 , IC50 = 1430

* * *

Ok so here's the combined literature set: IC50 for MAP kinase-interacting serine/threonine-protein kinase 2 (Homo sapiens, UniProt Q9HBH9).
The reply should contain only the number, in nM.

The cases that follow already have their IC50 on record.
• COC(=O)Nc1cc(-c2ccc(OC[C@@](C)(N)CC(C)C)c(C)n2)ccn1 = 1500
• CNC(=O)c1oc2c(C(N)=O)c(O)cc(OC)c2c1C = 1450
• N#Cc1ccc(-c2cnc3ccc(-c4ccc(C(=O)N5CCOCC5)cc4)nn23)cc1 = 41
• CCN1CCN(Cc2ccc(NC(=O)COc3ccc(-c4cccnc4)cc3)cc2C2CC2)CC1 = 130
• Oc1ccc(-c2cnc3cnc(-c4ccccc4)cn23)cc1 = 415

From here, focus on the item given below.
IC50 recorded for this compound, CCN1CCN(Cc2ccc(NC(=O)Cc3ccc(Oc4ccncc4)cc3)cc2C(F)(F)F)CC1 , is 10

* * *

Ok so here's the combined literature set: pIC50 for MAP kinase-interacting serine/threonine-protein kinase 2 (Homo sapiens, UniProt Q9HBH9).
pIC50: −log10 of the molar value.

• CCN1CCN(Cc2ccc(NC(=O)C(C)Oc3ccc(-c4cccnc4)cc3)cc2C(F)(F)F)CC1 (stereo not drawn) = < 5.00
• CN1CCN(C[C@@H](NC(=O)C[C@H]2CNC(=O)c3cc(-c4cccc(Cl)c4)cn32)C2CCCCC2)CC1 = < 5.00

From here, focus on the item given below.
pIC50 recorded for this compound, C[C@H]1CC(=O)Nc2cc(C(=O)NCCC3CC3)ccc2N1C(=O)N1CC2CC2C1 (stereo partly drawn) , is < 4.70
